Attribution: PubChem BioAssay

- procedure_summary: sensitizers of A549 cells to miR-34 induction, primary screen, imaging, A549 dox-inducible miR-34, nuclei and caspase counts (AID 1347080)
- experimental_conditions: A549 miR-34 inducible, Hoechst nuclei count, 48 h; measured here: total cells with miR-34 induction; stronger effect = lower value
measured_quantity: cell count
Please state the value as a number alone, without comment.

Below, 4 compounds whose answers are already recorded.
O=c1cc(O)c(Cl)c[nH]1 = 8010
NCCNCCNCCN = 11700
CCCCCCCCCCOc1cc2c(=O)c(C(=O)OCC)c[nH]c2cc1OCC = 11200
COc1ccc([C@@H]2CC(=O)c3c(O)cc(O[C@@H]4O[C@H](CO[C@@H]5O[C@@H](C)[C@H](O)[C@@H](O)[C@H]5O)[C@@H](O)[C@H](O)[C@H]4O)cc3O2)cc1O = 8600

Exercise: Reported cell count, compound C[C@H]1O[C@H](O[C@H]2[C@H](O)[C@@H](O)[C@@H](O[C@H]3[C@H](O)[C@@H](O)[C@H](O)O[C@@H]3CO)O[C@@H]2CO)[C@H](O)[C@@H](O)[C@@H]1N[C@H]1C=C(CO)[C@@H](O)[C@H](O)[C@H]1O : ____
Solution: 7710

---

- procedure_summary: ICB984 medulloblastoma cell growth inhibition, synergistic combos for chromothripsis tumors, cisplatin or BGB combos (AID 1671451);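 also: cells exposed for 96 hours before readout; 0% = vehicle DMSO and 100% = killing by high DMSO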
- experimental_conditions: ICB984 medulloblastoma cells, drug combinations, cisplatin combo, at 0.5 µM, stronger effect = higher value
Listed molecules paired with reported inhibition
Could you give me the number in %? Just the number is fine.

Before answering, review these 4 worked examples.
O=C(CCCCCCC(=O)Nc1ccccc1)NO = -19.8
COc1c2ccoc2cc2oc(=O)ccc12 = -26.9
CN(N=O)C(=O)NC1C(O)OC(CO)C(O)C1O (stereo not given) = -0.064
N=C(N=C(N)N)N1CCOCC1 = -17.9

Exercise: Look up inhibition for this molecule: CCOC(=O)Nc1ccc(NCc2ccc(F)cc2)nc1N
Solution: -9.07

---

- procedure_summary: liver-stage malaria parasite growth inhibition, primary screen, cell-based, HepG2, luciferase luminescence, HepG2 viability (AID 624349);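 also: 100% = mean of DMSO negative control wells on the same plate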
- experimental_conditions: P. berghei liver stage in HepG2, luciferase luminescence, concentration not given here; stronger effect = lower value
Range-based classes on measured parasite load remaining: L = under 30%, M = from 30% up to 70%, H = 70% and over

COc1ccc2[nH]c(S(=O)Cc3ncc(C)c(OC)c3C)nc2n1 (stereo unspecified) = L

Exercise: Pick a category. Item: CC1=C(C/C=C(\C)CCC[C@H](C)CCC[C@H](C)CCCC(C)C)C(=O)c2ccccc2C1=O
Solution: L

Exercise: Tag the class for CN=C(NC#N)Nc1ccc(C2=NNC(=O)CC2C)cc1 (stereo unspecified)
Solution: L

Exercise: For COc1cc(S(C)=O)ccc1-c1nc2ncccc2[nH]1 (stereo unspecified) , which parasite load remaining bin applies?
Solution: H

Exercise: Any idea which band CC(C)Nc1cccnc1N1CCN(C(=O)c2cc3cc(NS(C)(=O)=O)ccc3[nH]2)CC1 is in?
Solution: M

Exercise: Lab note: sort O=[N+]([O-])c1cccc2cn[nH]c12 into the matching parasite load remaining band.
Solution: M

Exercise: Please classify: O=C1c2ccccc2C(=O)C1c1ccc(Br)cc1
Solution: M

Exercise: Would you mind sorting O=c1c(-c2ccc(O)cc2)coc2cc(O)ccc12 into the appropriate category?
Solution: H
